Entries and their measured herbicidal action (damage rating 0-10), Digitaria follow.
Tested on: Monocotyledonous and dicotyledonous test plants
Test: Example B1 herbicidal action, application pre-emergence (Table B1b)
Type: in vivo
Details: Digitaria, 250 g/ha, evaluated after 4 weeks
reported-endpoint: herbicidal action (damage rating 0-10), Digitaria

[[record]]
compound = "Cc1nsc(C#N)c1C(F)(F)S(=O)(=O)C1=NOC(C)(C)C1 [Compound No. 3.02]"
reported_value = 10

[[record]]
compound = "COc1ccccc1C(F)S(=O)(=O)C1=NOC(C)(C)C1 (stereo not drawn) [1.104]"
reported_value = 9

[[record]]
compound = "CC1(C)CC(S(=O)(=O)C(Cl)(Br)c2c(F)cccc2F)=NO1 (stereo not drawn) [Compound No. 1.53]"
reported_value = 10

[[record]]
compound = "CC1(C)CC(S(=O)(=O)C(F)(F)c2cccc(F)c2F)=NO1 [1.116]"
reported_value = 10

[[record]]
compound = "CC1(C)CC(S(=O)(=O)C(F)(Cl)c2ccccc2)=NO1 (racemic) [1.75]"
reported_value = 10

[[record]]
compound = "CC(=O)O/C(C)=C(/c1c(F)cccc1F)S(=O)(=O)C1=NOC(C)(C)C1 [Compound No. 1.98]"
reported_value = 8

[[record]]
compound = "Cn1nc(C(F)(F)F)c(C(F)(F)S(=O)(=O)C2=NOC(C)(C)C2)c1OCC(F)(F)F [2.01]"
reported_value = 10

[[record]]
compound = "CC1(C)CC(S(=O)(=O)C(Br)c2ccc(F)cc2F)=NO1 (stereo not drawn) [1.150]"
reported_value = 10

[[record]]
compound = "CC1(C)CC([S+]([O-])C(Cl)c2c(F)cccc2Cl)=NO1 (single isomer, unassigned) [1.33]"
reported_value = 8

[[record]]
compound = "CC(=O)C(c1c(C(F)(F)F)nn(C)c1OCC(F)(F)F)S(=O)(=O)C1=NOC(C)(C)C1 (stereo not drawn) [2.08]"
reported_value = 2

[[record]]
compound = "Cc1ccc(F)c(C(Br)S(=O)(=O)C2=NOC(C)(C)C2)c1F (stereo not drawn) [1.102]"
reported_value = 10

[[record]]
compound = "Cc1cccc(C(CC=C(F)F)S(=O)(=O)C2=NOC(C)(C)C2)c1 (stereo not drawn) [1.29]"
reported_value = 3

[[record]]
compound = "CC1(C)CC([S+]([O-])C(Cl)c2c(F)cccc2Cl)=NO1 (single isomer, unassigned) [1.34]"
reported_value = 9

[[record]]
compound = "Cc1ccc(F)c(C(F)(F)S(=O)(=O)C2=NOC(C)(C)C2)c1F [1.108]"
reported_value = 10

[[record]]
compound = "Cc1cc(C(F)S(=O)(=O)C2=NOC(C)(C)C2)no1 (stereo not drawn) [4.02]"
reported_value = 8

[[record]]
compound = "CC1(C)CC(S(=O)(=O)C(Br)c2cc(F)ccc2F)=NO1 (stereo not drawn) [1.135]"
reported_value = 10

[[record]]
compound = "COCC(c1c(F)cccc1F)S(=O)(=O)C1=NOC(C)(C)C1 (stereo not drawn) [Compound No. 1.51]"
reported_value = 9

[[record]]
compound = "COc1ccccc1C(Cl)S(=O)(=O)C1=NOC(C)(C)C1 (stereo not drawn) [1.141]"
reported_value = 9

